Data origin: PubChem BioAssay (NCI)

# Tested on: NCI/ADR-RES ovarian
# METHOD DESCRIPTION: NCI-60 one-dose screen, 48 h (100 = growth as untreated, 0 = no growth, -100 = all killed)
# APPLIED CONDITIONS: 10 µM unless noted
About 83,000 compounds went through this panel and 20% of them were active in at least one assay; those are over-represented in the sample as a whole.
Each record's class is read off its growth using these ranges: band 1 = under 20%, band 2 = from 20% up to 50%, band 3 = 50% and over

Qu. Which category does the recorded growth put COc1ccc(-c2cc(C)nc3[nH]c(=O)sc23)cc1 in?
Ans. band 3

Qu. Which category does the recorded growth put COC(=O)c1cc(C(=O)C(C)(C)C)n2c3ccccc3c3ccccc3c12 in?
Ans. band 3

Qu. Which category does the recorded growth put COc1cc(CNC(=O)C[C@H](C)CCC=C(C)C)ccc1OCc1cn(-c2ccccc2F)nn1 in?
Ans. band 3

Qu. Which category does the recorded growth put COc1ccccc1Nc1nnc(-c2c[nH]c3ccccc23)o1 in?
Ans. band 1

Qu. Which category does the recorded growth put CN1C(=O)/C(=C/c2ccco2)S/C1=N/c1nccs1 in?
Ans. band 3

Qu. Which category does the recorded growth put CC1=C(C(=O)OCc2ccccc2)C(c2cccc3ccccc23)n2c(nc3ccccc32)N1 (stereo not given) in?
Ans. band 1

Qu. Which category does the recorded growth put Nc1nc2cc(-c3ccc4ncnc(NCc5ccccc5)c4c3)ccc2o1 in?
Ans. band 1

Qu. Which category does the recorded growth put COc1ccc(S(=O)(=O)Nc2ccc(-c3ccc4c(c3)NC(=O)/C4=C\c3ccc[nH]3)cc2)cc1OC in?
Ans. band 2

Qu. Which category does the recorded growth put COc1ccc(/C=C/c2nc3ccccc3c(=O)n2CC(=O)Nc2ccccc2)cc1 in?
Ans. band 2
